Measured values drawn from patent US20210122763A1 for this set.

target: OGA (Homo sapiens); construct: HEK293 cells inducible for P301L mutant human Tau (isoform 2N4R) were established at Janssen; endogenous in cells; host or cells: HEK293 cells inducible for P301L mutant human Tau (2N4R); assay: OGA cellular assay (ICC detection of O-GlcNAcylated proteins in HEK293 cells inducible for P301L mutant human Tau); type: cell-based; conditions: HEK293 cells inducible for P301L mutant human Tau, 6 hours incubation; read-out: Cellular hOGA; pEC50 (converted)
Sequence (O60502 whole entry, canonical isoform): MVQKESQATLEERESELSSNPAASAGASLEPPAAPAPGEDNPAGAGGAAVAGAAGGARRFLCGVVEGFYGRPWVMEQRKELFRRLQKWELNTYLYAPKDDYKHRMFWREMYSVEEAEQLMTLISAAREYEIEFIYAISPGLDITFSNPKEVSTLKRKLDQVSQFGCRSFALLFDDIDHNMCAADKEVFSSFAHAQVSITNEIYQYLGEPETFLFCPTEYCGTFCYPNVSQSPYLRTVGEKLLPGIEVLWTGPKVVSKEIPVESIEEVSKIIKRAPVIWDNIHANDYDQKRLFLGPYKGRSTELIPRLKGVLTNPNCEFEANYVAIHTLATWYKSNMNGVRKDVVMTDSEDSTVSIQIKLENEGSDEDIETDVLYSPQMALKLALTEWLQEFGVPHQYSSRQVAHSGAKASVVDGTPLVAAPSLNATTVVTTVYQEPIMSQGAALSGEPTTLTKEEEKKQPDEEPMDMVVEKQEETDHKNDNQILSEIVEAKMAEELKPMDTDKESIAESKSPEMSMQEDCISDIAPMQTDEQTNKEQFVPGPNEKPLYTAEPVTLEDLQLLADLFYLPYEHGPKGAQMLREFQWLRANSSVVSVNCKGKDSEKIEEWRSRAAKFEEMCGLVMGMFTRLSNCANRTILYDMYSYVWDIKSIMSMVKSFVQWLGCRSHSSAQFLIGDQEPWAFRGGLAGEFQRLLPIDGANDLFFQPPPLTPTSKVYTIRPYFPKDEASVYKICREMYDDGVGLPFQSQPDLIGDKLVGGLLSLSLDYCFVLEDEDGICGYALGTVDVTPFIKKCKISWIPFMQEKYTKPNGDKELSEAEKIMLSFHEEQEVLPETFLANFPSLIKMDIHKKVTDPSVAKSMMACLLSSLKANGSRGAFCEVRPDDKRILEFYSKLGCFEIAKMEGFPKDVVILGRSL
ASSAY_READOUT: EC50 (µM)

Guide cases for EC50, answers given:
molecule="Cc1cc(NC2CCN(C(C)c3ccc4c(n3)OCCO4)CC2)cc(C)n1 (centres unmarked)" assay_readout=EC50 result_number=0.813
molecule="Cc1cc(OC2CCN([C@@H](C)c3nc4nc(C)sc4cc3F)CC2)cc(C)n1 (single isomer, unassigned)" assay_readout=EC50 result_number=0.0316
molecule=C[C@@H](c1ccc2c(n1)OCCO2)N1CCC(Oc2ccc(C#N)nn2)CC1 assay_readout=EC50 result_number=0.631
molecule="CC(c1ccc2c(n1)OCCO2)N1CCC(Oc2ccnc(C#N)c2)CC1 (centres unmarked)" assay_readout=EC50 result_number=0.631
molecule="COc1cc(OC2CCN(C(C)c3ccc4sc(C)nc4n3)CC2)cc(C)n1 (single isomer, unassigned) [Compound 24]" assay_readout=EC50 result_number=0.1

1 = Cc1ncc(OC2CCN(C(C)c3nc4c(cc3F)CCO4)CC2)cn1 (centres unmarked)
2 = Cc1ccc(OC2CCN(C(C)c3nc4c(cc3F)OCCO4)CC2)nc1C (centres unmarked)
3 = CNC(=O)c1ccc(OC2CCN(C(C)c3ccc4c(n3)OCCO4)CC2)cn1 (centres unmarked)
Req: Put these in order: smallest EC50 first, largest last. Rank them, then answer with their labels in that order.
Resp: 1, 2, 3
(1: 0.0398 µM, 2: 0.2 µM, 3: 0.794 µM)

a = Cc1cnc(C)c(OC2CCN(C(C)c3nc4c(cc3F)OCCO4)CC2)n1 (centres unmarked)
b = Cc1ncc(COC2CCN(C(C)c3nc4c(cc3F)OCCO4)CC2)cn1 (centres unmarked) [Compound 135]
Req: Could you check which of a and b has a smaller value for EC50? Selection: enter the item's label.
Resp: b
